# system.name: MAL^TIR (Homo sapiens)
# Construct: MAL (residues 79–221); 6xHis; made in house; host or cells: E. coli BL21 (DE3)
# Sequence (P58753 79-221): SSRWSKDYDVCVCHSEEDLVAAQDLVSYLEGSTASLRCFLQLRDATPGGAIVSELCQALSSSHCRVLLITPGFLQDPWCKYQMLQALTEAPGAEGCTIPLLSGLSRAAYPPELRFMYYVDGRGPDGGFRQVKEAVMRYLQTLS
# measurement.notes: T‐Surf phage library (P8 and P3) selection against MAL^TIR, four rounds, NGS read counts
# Assay type: binding
# test.context: P3 library, selection against MAL TIR; rank by count after grouping
readout.label: P3_MAL Rank (after)

{"chain.sequence": "RGFLSHMRHPLQAKDH", "system.name": "MAL^TIR (Homo sapiens)", "P3_MAL Rank (after)": 281}
{"chain.sequence": "LQNQWKLALTKVAKLE", "system.name": "MAL^TIR (Homo sapiens)", "P3_MAL Rank (after)": 236}
{"chain.sequence": "KSILDTEARIWGWLFA", "system.name": "MAL^TIR (Homo sapiens)", "P3_MAL Rank (after)": 248}
{"chain.sequence": "NQLRTALTAAANLSGW", "system.name": "MAL^TIR (Homo sapiens)", "P3_MAL Rank (after)": 267}
